B1: tRNA (parent)
chain: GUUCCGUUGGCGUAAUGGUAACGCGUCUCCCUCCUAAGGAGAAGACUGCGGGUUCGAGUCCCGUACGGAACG

Variants of: B1
Test: yeast fitness relative to wild type (ratio to wild type); higher = fitter; tRNA-Arg(CCU), competitive growth, 37 C, YPD
Variants at the floor of the assay were thinned out.
Quick list: yeast fitness per entry.

Biosequence | Limit Qualifier | yeast fitness
GUUCCGUUGGCGUAAUGGUAACGCGUCUCCCUCCUAAGCAGAAGACUGCGGGUUCGAGUCCCGUACGGAACG [G39C] | = | 0.93
GUUCCGUUGGCGUAAUGGUAACGCGUCUCCCUCCUCCGGAGAAGACUGCGGGGUCGAGUCCCGUAUGGACCG [A36C A37C U53G C66U A70C] | = | 0.531
GUUCCGUUGACGUAAUGGUUACGCGUCUCCCUCCCAAGGAGAAGACUCCGGGUUCGAGUCCCGUACGGAACG [G10A A20U U35C G48C] | = | 0.723
GUUCAGUUGGCGUAAUGGUAACGCGACUCCCUCCUAAGGAGAAGACUGCGGGUUCGAGUCCCGUAAGGAACG [C5A U26A C66A] | ≤ | 0.5
GUUCCGUUGGCGUAAUGGUAACGCGCCUCUCUCCUAAGGAGAAGACUGCGGGUUCGAGUCCCGUACGGAACG [U26C C30U] | = | 0.67
GUUCCGUUGGUGUAAUGGUAACGCGUCUCCCUCCUAAGGCGAAGACUGCGGGUUCGAGUCCCGUACGAAACG [C11U A40C G68A] | = | 0.733
GUUCCGUUGGUGUAAUGGGUACGCGUCUCCCUCCUAAGGAGAAGACUGCGGGUUCGAGUCCCGUACGGAACG [C11U U19G A20U] | = | 0.764
GUUCCGUUGGCGUAAAGGUAACGCGUCUCCCUAAUAAGGAGAAGACUGCGGGUUCGAGUCCCGUACGGAACG [U16A C33A C34A] | ≤ | 0.5
GUUCCGUUGGCGUAAUGGUAACGCGUCUCCCUCCUAAGGAGAAGAUUGCGGGUUCGAGUCCCGUAAGGAACG [C46U C66A] | = | 0.853
GUUCCGUUGGCGUAAUGGAAACGCGCCUCCCUCCUAAGGAGAAGACUGGGGGUUCGAGUCCCGUAGGGAACG [U19A U26C C49G C66G] | ≤ | 0.5
GAUCCCUUGGCGUAAUGGUAACGCGUCUACCUCCUAAGGAGAAGACUGCGGGUUCGAGGCCCGUACGGAACG [U2A G6C C29A U59G] | = | 0.603
GUUCCGUAGGCGUAAUGGUAACGCGUCUCCCUCCUAAGGAAAAGACUGCGGGUUCGAGUCCCGUACGGUACG [U8A G41A A69U] | ≤ | 0.5
GUUCCGUUGGCGUAAUGGUAACGCGUUUCUCUCGUACGGAGAAGACUGCGGGUUCGAGUCACGUACGGAACG [C27U C30U C34G A37C C61A] | ≤ | 0.5
GUUCCGUUGGCGUAAUGGUAACGCGUCUCCCUCCUAAGGAGAAGACUGCGGGUUCGAGUCCGGCACGGAACG [C62G U64C] | = | 0.97
GUUCCGUUGGGGUAAUGGUAACGCGUCUCCCUCCUAAGGAGAAGCCUGCGGGUUCGAGUCCCGUCCGGAACG [C11G A45C A65C] | ≤ | 0.5
GUUCCGUUGGCGUAUUGGUAACGCGUCUACCUCCUAAGGAGAAGACUGCGGGUUCGAGUCCCGUACGGAACG [A15U C29A] | = | 0.568
GUUGCGUUGGCGUAAUGGUAACGCGUCUCCCUCCCAAGGAGAAGACUGCGGGUUGGAGUCCCGUACGGAACG [C4G U35C C55G] | ≤ | 0.5
GUUCCGUUGGCGUAAUGGUAACGCGGCUCCCUCCUAAGGAGAAGAGUGCGGGUUCGAGUCCCGUACGGAACG [U26G C46G] | = | 0.807
GUUCCGUUGGCGUACUGGCAACGCGUCUCCGUCCUAAGGAGAAGACUGCGGGUUCCAGUCCCGUAUGGAACG [A15C U19C C31G G56C C66U] | ≤ | 0.5
GUACCGUUGGCAUAAUGGAAACGCGUCUCCCUCCUAACGAGAAGACUACGGGUUCGAGUCCCGUACGGAACG [U3A G12A U19A G38C G48A] | ≤ | 0.5
GUUCCGUUGGCGUAAUGGUAACGCGACUCCCUCCUAAGGCGAAGACUGCGGGUACGAGUCCCGUACGGAACG [U26A A40C U54A] | ≤ | 0.5
GUUCCGUUGGCGUAAUGGUAACGCGUCUCCCUCCCAAGGAGAAGACUGCCGGUUCGAGUCCCGUACGGAACG [U35C G50C] | = | 0.703
GUUCCGUUGGCGUAAUGGUAACGCGUCUCCCUCCUAAGGAAAAGAGUGCAGGUUCGAGUCCAGUACGGAACG [G41A C46G G50A C62A] | = | 0.537
GUUCCGUUGGCGUAAUGGUAACGCGUCUCCCUCCUAAGGAGAAGACUGCGGGUGCGUGUCCCGUUCGGAACG [U54G A57U A65U] | ≤ | 0.5
GUUCCGUUGGCGUAAUGGUAACGCGUCUCCCUCUUAAGGAGAAGACUGCGUGUUCGAGUUCUGUCCGGGACG [C34U G51U C60U C62U A65C A69G] | ≤ | 0.5
GUUCCGUUGGCGUAGUGGUAACGCGUCUCCAUCCUAAGGACAAGACUGCGGGUUCAACUCCCGUACGGAACG [A15G C31A G41C G56A G58C] | ≤ | 0.5
GUUCCGUUGCCGUAAUGGUAACGCGUGUCGCUCCUAAGGAGAAGACUCCGGGUUCGAGUCCCGUCCGGAACG [G10C C27G C30G G48C A65C] | ≤ | 0.5
GUUCCGUUGGCGUAACGGUAACGCGUCUCCCUCCUAAGGUGAAGACUGCGGAUUACAGUCCCGUACGGAACG [U16C A40U G52A C55A G56C] | ≤ | 0.5
GUUCCGUUGGCGUAAUGGUAACGCGUCUCUCUCCUAAGGAGAAGACUGCGGGUUCGAGUCCCGUAGGGAGCG [C30U C66G A70G] | ≤ | 0.5
GUUCGGUUCGCGUAAUGGUAACGCGUCUCCCUCCUAAGGAGAGGACUGCGGGUUCGAGUCCCGUACGGGACG [C5G G9C A43G A69G] | ≤ | 0.5
GUUCCGUUGGCGUAAUGGUAACACCUCUCCCUCCUAAGGAGAAGACUGCGAGUUCGAGUCCCGUACGGAACG [G23A G25C G51A] | = | 0.661
GUUCCGUUGGCGGAAUGGUUACGCGUCUCCCUCCUAAGGAGAAGACUGCGGGCUCGAGUCCUGUACGGAACG [U13G A20U U53C C62U] | ≤ | 0.5
GUUCCGUUGGCGUAAUGGUAACGCGUCUCCCUCCUAAGGAGAAGACUGCGGGUGCGAGUCCCGUACGAAACG [U54G G68A] | = | 0.541
GUUCCGUUGGCGUAAUGCUAACGCGUCUCCCUCCUAAGGAGAAGACUGCGGGUUCGACUCCCGUACGGAACG [G18C G58C] | = | 0.635
GUUCCGUUGGCGUAAUGGUAACGCGUCUCCCUUCUGAGGAAAAGACUGCGGGUUCGAGUCGCGUACGGAACG [C33U A36G G41A C61G] | ≤ | 0.5
GUUCCGUUGGCGUUAUGGUAACGCGUCUCCCUCCUAAGGAGAUGGCUGCGGGCUCGAGUCCCGUACGGAACG [A14U A43U A45G U53C] | ≤ | 0.5
GUUCCGUUGGCGUAAUGGUCACGCGUCUCCCUCGUAAGGAGAAGACUGCGGGUUCGAGUCCCGUACGGAACG [A20C C34G] | = | 0.527
GUUCCGUUGGCGUAAUGGUAACGCGUAUCCCUCGUAAGGGGAAGACUGCGGGUUCGAGUCCCGUACGGAACG [C27A C34G A40G] | = | 0.666
GUUCCGUUGGCGUAAUGGUAACGCGUCUCCCUCGUAAGGAGAAGACUGGGGGUUCGAGUCUCGUACGGACCG [C34G C49G C61U A70C] | ≤ | 0.5
GCUCCGUUGGCGUAAUGGUAACGCGUCUCCCUCCUAAGGCGUAGACUGGGGGUUCGAGUCCCGUAGGGAACG [U2C A40C A42U C49G C66G] | ≤ | 0.5
GUUCUGUUGGCGUAAGGGUAACGCGUCUCCCUCCUAAGGAGAGGACUGCGGGUUCGAGUCCCGUACCGAACG [C5U U16G A43G G67C] | ≤ | 0.5
GUUCCGUUGGCGUCAUGGUAACGCGUCCCCCUCCUAAGGAGAAGACUGCGGGUUCGAGUCCCGUACGGAACG [A14C U28C] | = | 0.606
GUUCUGUUGGCGUAAUGAUAACGCGUCUCCCUCCUAAGGAGAAGACUGCGGGUUCGAGUCCCGUACGGAACG [C5U G18A] | = | 0.76
GUUCCGUUGGCGUAAUGGUAACGCAUCUCGCUCCUAAGGAGAAGACUGUGGGUUCGAGUCCCGUACGGAACG [G25A C30G C49U] | = | 0.594
GUUCCGUUGGCGUAAUGCUAACGCCUCUCCCUUCUAAGGAGAAGACUGCGGGUUCGAGUCUCGUACGGAACG [G18C G25C C33U C61U] | ≤ | 0.5
GUUCCGUUGGCGUAAUGGUAACGCGUCUCCCUCCUAAGGAGAAGACUGCGGGUUCGAAACCCGUACGGAACG [G58A U59A] | = | 1.06

From: the RNAGym collection of RNA variant scans (doi:10.1126/science.aae0568)
